- Experimental System: Paired box protein Pax-8 (Homo sapiens, UniProt Q06710)
- Sequence (Q06710 whole entry): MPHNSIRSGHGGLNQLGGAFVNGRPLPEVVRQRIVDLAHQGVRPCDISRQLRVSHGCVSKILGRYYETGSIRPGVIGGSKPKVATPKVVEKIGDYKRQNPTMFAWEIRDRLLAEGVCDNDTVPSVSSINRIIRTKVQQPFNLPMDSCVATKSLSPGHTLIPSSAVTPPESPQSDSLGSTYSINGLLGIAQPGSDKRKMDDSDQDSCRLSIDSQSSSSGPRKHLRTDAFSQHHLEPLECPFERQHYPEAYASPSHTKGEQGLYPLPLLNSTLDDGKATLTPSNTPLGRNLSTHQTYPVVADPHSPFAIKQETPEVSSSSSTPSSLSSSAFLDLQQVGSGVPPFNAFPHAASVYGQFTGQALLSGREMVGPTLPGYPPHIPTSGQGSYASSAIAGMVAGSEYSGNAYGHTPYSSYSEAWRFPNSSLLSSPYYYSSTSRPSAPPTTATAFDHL
- Assay Name: inhibitors of PAX8-driven TPO luciferase reporter, dose response, RMG-I cells, cherry-pick (AID 687027);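 further: luciferase reporter driven by Pax8 target thyroperoxidase promoter measured by SteadyGlo luminescence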
- Assay type: functional, cell-based
The source made the active and inactive calls. How the calls were made is not given here.
Measurement Kind: AC50

Take a look at these entries with their results.
1) Cc1ccc(S(=O)(=O)Nc2ccc3c(c2)C(=O)N([C@@H](C)CO)C[C@H](C)[C@H](CN(C)Cc2ccc(C(F)(F)F)cc2)OCCCC[C@@H](C)O3)cc1 : 7.03 µM (active)
2) C[C@H]1CCCCO[C@H](CN(C)S(=O)(=O)c2ccc(F)cc2)[C@@H](C)CN([C@@H](C)CO)C(=O)c2cc(NS(=O)(=O)c3ccc(Cl)cc3)ccc2O1 : 5.92 µM (active)
3) COc1ccc(C(=O)NN(C)c2nc(C(F)(F)F)nc3ccccc23)cc1 : 1.79 µM (active)
4) C[C@@H]1CCCCO[C@@H](CN(C)Cc2ccc(C(F)(F)F)cc2)[C@H](C)CN([C@@H](C)CO)C(=O)c2cc(NC(=O)NC3CCCCC3)ccc2O1 : 8.39 µM (active)

# AC50 (molecule: `O=C(c1ccccc1F)N1CC(=O)N2[C@@H](CO)[C@@H](c3ccc(C#Cc4ccc(F)cc4)cc3)[C@@H]2C1` ) is 5.77 µM (active)

Just so you know, measured AC50 for `C[C@@H]1CCCCO[C@@H](CN(C)Cc2ccc(Cl)c(Cl)c2)[C@H](C)CN([C@H](C)CO)C(=O)c2cc(NS(=O)(=O)c3ccc(Cl)cc3)ccc2O1` came out at 8.68 µM (active)

# molecule `CCCN(C)C[C@H]1OCCCC[C@@H](C)Oc2ccc(NC(=O)c3ccccc3)cc2C(=O)N([C@H](C)CO)C[C@H]1C` ; its AC50 = 69.5 µM (active)

// sample `CO[C@@H]1CN(C)C(=O)c2cc(NC(=O)c3ccc(-c4ccccc4)cc3)ccc2OC[C@H](C)NC[C@H]1C` , its AC50 was 25.3 µM (active)

Summary for this molecule, OCC1OC(n2cnc3c(O)nnnc32)C(O)C1O (stereo not given) : AC50 is 0.785 µM (active)

Noted for `O=C(C[C@@H]1C[C@H]2c3cc(NS(=O)(=O)c4ccc(F)cc4)ccc3O[C@H]2[C@H](CO)O1)NCc1ccc(-c2ccccc2)cc1` : its AC50 reads 3.44 µM (active)

So, C=C1C(=O)[C@]23C[C@H]1CCC2[C@@]1(C)C(C[C@@H]3O)[C@](C)(C(=O)OC)CC[C@@H]1O (stereo not given in full) ? Its AC50 was 1.71 µM (active)

====

Entries annotated with measured AC50
- Experimental System: UniProtKB O75030
- Sequence (O75030 whole entry): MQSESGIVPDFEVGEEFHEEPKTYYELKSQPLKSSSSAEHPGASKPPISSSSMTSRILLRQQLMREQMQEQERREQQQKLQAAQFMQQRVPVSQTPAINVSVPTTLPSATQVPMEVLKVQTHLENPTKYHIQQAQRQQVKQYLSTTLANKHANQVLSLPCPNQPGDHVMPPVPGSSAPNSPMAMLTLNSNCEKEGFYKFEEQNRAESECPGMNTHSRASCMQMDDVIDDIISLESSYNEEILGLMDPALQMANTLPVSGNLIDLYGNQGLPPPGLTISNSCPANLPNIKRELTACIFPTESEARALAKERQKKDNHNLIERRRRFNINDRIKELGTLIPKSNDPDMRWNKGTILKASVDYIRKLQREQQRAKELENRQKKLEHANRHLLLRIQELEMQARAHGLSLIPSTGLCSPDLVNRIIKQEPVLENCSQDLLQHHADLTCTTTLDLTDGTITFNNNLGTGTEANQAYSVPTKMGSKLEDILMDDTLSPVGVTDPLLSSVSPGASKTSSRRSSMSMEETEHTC
- Assay Name: TRPM1 promoter luciferase signal decrease, dose response, MITF inhibitor project, cell-based, SK-MEL-5, cherry-picked, set 3 (AID 493073);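 further: SK-MEL-5 melanoma cells with luciferase driven by the MITF target TRPM1 promoter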
- Assay type: functional
The source made the active and inactive calls. The rule behind the calls is not given here.

Examples with their reported AC50 follow.
1) COc1ccccc1NC(=O)c1cnc(SCC(=O)NCC2CCCO2)n(C)c1=O (configuration not stated) : 8.88 µM (active)
2) Cn1c(SCC(=O)N/N=C/c2ccc([N+](=O)[O-])s2)nnc1-c1ccccc1 : 4.28 µM (active)
3) O=C(NC(=S)NCc1ccccc1)c1ccccc1 : 22.1 µM (active)
4) O=C(NCc1ccco1)c1nc(O)c2nnn(Cc3ccccc3Cl)c2n1 : 14.4 µM (active)
5) CC(C)(C)c1ccc(Cn2c(=N)n(CC(O)c3ccco3)c3ccccc32)cc1 (configuration not stated) : 11.8 µM (active)

Note to self: AC50 recorded for `COc1cc2nc(SCC(=O)NCc3ccco3)n(Cc3ccc(Cl)cc3)c(=O)c2cc1OC` was 13.2 µM (active)

The recorded AC50 for entry `COc1cc(/C=C/C(=O)N2CCC=CC2=O)cc(OC)c1OC` equals 7.4 µM (active)
